Values were extracted from ChEMBL document CHEMBL6127150.

Molecular target: Poly [ADP-ribose] polymerase tankyrase-1 (Homo sapiens)
Sequence (whole entry): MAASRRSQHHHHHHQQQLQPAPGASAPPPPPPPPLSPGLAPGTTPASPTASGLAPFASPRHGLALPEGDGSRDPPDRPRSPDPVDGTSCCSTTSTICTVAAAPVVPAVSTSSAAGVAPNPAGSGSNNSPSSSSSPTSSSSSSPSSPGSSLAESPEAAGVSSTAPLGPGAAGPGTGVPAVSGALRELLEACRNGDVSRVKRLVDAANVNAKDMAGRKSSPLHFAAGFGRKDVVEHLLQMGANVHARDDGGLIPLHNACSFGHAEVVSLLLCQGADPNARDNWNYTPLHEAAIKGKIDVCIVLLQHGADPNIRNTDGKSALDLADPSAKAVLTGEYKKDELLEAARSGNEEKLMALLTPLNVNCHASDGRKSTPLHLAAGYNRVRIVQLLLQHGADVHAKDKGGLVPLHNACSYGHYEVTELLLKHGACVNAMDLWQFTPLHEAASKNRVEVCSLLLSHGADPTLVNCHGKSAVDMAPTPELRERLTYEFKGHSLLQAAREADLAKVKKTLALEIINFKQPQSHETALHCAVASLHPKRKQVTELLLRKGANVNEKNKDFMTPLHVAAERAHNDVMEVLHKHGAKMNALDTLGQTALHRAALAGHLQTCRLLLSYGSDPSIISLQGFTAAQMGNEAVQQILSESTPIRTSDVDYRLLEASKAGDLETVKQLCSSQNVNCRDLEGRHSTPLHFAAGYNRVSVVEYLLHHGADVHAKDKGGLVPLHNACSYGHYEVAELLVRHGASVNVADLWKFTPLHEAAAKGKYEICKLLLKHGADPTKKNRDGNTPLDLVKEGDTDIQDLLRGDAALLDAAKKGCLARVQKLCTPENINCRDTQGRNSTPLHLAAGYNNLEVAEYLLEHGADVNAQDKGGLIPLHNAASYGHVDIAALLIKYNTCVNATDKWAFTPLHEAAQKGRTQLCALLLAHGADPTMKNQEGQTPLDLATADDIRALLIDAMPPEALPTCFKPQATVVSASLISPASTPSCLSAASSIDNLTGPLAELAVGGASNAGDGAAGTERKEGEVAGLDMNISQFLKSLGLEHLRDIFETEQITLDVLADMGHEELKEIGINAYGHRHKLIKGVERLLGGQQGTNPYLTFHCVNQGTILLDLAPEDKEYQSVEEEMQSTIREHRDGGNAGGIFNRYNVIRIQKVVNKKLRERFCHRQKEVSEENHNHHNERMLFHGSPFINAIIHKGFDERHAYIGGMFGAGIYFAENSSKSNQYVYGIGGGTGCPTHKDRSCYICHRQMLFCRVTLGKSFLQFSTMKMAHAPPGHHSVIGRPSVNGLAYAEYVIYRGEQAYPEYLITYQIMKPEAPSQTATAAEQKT
Experiment: Inhibition of human PARP5a catalytic domain expressed in bacterial expression system assessed as reduction in enzyme mediated autoPARylation at 100 uM using NAD+ as substrate measured after 2 hrs by immunoblot analysis
Activity calls are given as the source filed them. The rule behind the calls is not given here.
OBSERVATION_TYPE: inhibition

1. CC(=O)c1cccc(CCOc2ccc(F)cc2C(N)=O)c1    Active
2. CC(=O)c1cccc(COc2ccccc2C(N)=O)c1    Active
3. CC(=O)c1cccc(CCOc2ccccc2C(N)=O)c1    Active
4. CC(=O)c1cc(COc2ccccc2C(N)=O)ccc1F    Active
